Values from patent USRE47689E1

Below: a set of entries, each annotated with reported melting point.

Example compounds with recorded melting point:
Cc1cn2cc(-c3cc4ccc(N5CCCN(C)CC5)cc4oc3=O)cc2cn1	148 to 150 °C
C[C@@H]1CN(c2ccc3cc(-c4cnc5ccccc5n4)c(=O)oc3c2)C[C@H](C)N1	234 to 236 °C

Attention now turns to another entry.
Input: I have this compound here, Cc1cnc2nc(-c3cc4ccc(N5CCN[C@@H](C)C5)cc4oc3=O)cn2c1 , and I need its recorded melting point.
Output: 254 to 256 °C

====

Below: a set of entries, each annotated with reported melting point.

Example compounds with recorded melting point:
Cc1cn2cc(-c3cc4ccc(C5CCN(C6CC6)CC5)cc4oc3=O)nc2c(C)n1 [Compound 854]	236 to 243 °C
Cc1ccn2cc(-c3cc4ccc(N5CCNC6(CCCC6)C5)cc4oc3=O)nc2c1 [Compound 596]	180 °C
C[C@@H]1CN(c2ccc3cc(-c4cn5ccc(C(F)(F)F)cc5n4)c(=O)oc3c2)C[C@H](C)N1 [Compound 116]	257 to 264 °C
CCN1CCC(c2ccc3cc(-c4cnc5nc(C)cn5c4)c(=O)oc3c2)CC1 [Compound 836]	288 to 290 °C
CCCN1CCN(c2ccc3cc(-c4cn5cccc(Cl)c5n4)c(=O)oc3c2)CC1 [Compound 119]	245 to 247 °C
O=c1oc2cc(N3CCNCC3)ccc2cc1-c1ccc2[nH]ncc2c1 [Compound 91]	250 to 252 °C
Cc1cn2cc(-c3cc4ccc(C5CCNCC5)cc4oc3=O)cnc2n1 [Compound 834]	280 to 281 °C

Attention now turns to another entry.
Input: I have this compound here, CCN1CC[C@@H](Oc2ccc3cc(-c4cn5cc(C)nc(C)c5n4)c(=O)oc3c2)C1 [Compound 890] , and I need its recorded melting point.
Output: 193 to 195 °C

====

QUANTITY_MEASURED: melting point

Example compounds with recorded melting point:
O=c1oc2cc(N3CCN4CCC3CC4)ccc2cc1-c1cn2cccnc2n1	> 300 °C
Cc1cn2cc(-c3cc4ccc(N5CCN(C)CC5)cc4oc3=O)nc2s1	> 300 °C
Cc1c(-c2cn3cc(Cl)ccc3n2)c(=O)oc2cc(N3CCNCC3)ccc12	224 to 227 °C

Input: I have this compound here, Cc1cn2cc(-c3cc4ccc(CCNC(C)CO)cc4oc3=O)nc2c(C)n1 (stereo not drawn) , and I need its recorded melting point.
Output: 203 to 206 °C

Input: Note, next up: O=c1oc2cc(N3CCNCC3)ccc2cc1-c1cc2ccccc2s1
Output: 243 to 245 °C

Input: Note, next up: Cc1csc(-c2cc3ccc(N4CCN[C@H](C)C4)cc3oc2=O)n1
Output: 176 °C

Input: Note, next up: O=c1oc2cc(N3CC4CCC3CN4)ccc2cc1-c1cn2cccc(Cl)c2n1 (stereo not drawn)
Output: 178 to 182 °C

Input: Note, next up: O=c1oc2cc(N3C[C@@H]4C[C@H]3CN4)ccc2cc1-c1nc(C(F)(F)F)cs1
Output: 211 to 220 °C

====

Below: a set of entries, each annotated with reported melting point.

Example molecules with recorded melting point:
COc1cccc(-c2cc3ccc(N4CCN[C@H](C)C4)cc3oc2=O)n1	150 to 152 °C
Cc1cn2cc(-c3cc4ccc(C5CCN(CC(C)C)CC5)cc4oc3=O)nc2cn1	260 to 270 °C
O=c1oc2cc(N3CCCNCC3)ccc2cc1-c1cn2ccc(C(F)(F)F)cc2n1	253 to 262 °C
C[C@H]1CN(c2ccc3cc(-c4cc5ccccc5s4)c(=O)oc3c2)CCN1	260 to 262 °C

Input: I have this molecule here, O=c1oc2cc(N3CCCNCC3)ccc2cc1-c1cn2ccsc2n1 , and I need its recorded melting point.
Output: 225 to 230 °C

Input: Note, next up: Cc1cn2cc(-c3cc4ccc(N(C)[C@@H]5CCN(C)C5)cc4oc3=O)nc2c(C)n1
Output: 179 to 186 °C

Input: Note, next up: Cc1cccn2cc(-c3cc4ccc(N5CCN[C@@H](C)C5)cc4oc3=O)nc12
Output: 162 to 166 °C

Input: Note, next up: Cc1cc(F)cn2cc(-c3cc4ccc(N5CCN(C)CC5)cc4oc3=O)nc12
Output: 223 to 233 °C
